B1: library; numbered along this chain (parent)
chain: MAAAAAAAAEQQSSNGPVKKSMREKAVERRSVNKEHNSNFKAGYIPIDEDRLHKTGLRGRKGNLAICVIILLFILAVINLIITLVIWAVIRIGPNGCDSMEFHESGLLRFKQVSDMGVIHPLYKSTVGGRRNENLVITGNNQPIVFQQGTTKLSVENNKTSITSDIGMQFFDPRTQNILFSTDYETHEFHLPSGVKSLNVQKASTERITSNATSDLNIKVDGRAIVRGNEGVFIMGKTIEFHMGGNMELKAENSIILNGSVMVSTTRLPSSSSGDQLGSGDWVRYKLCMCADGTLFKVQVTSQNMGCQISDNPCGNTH

- Variants of: B1
- assay.remarks: SGCB cell-surface expression functional score (HA stain, bin4 vs bin1, normalised to synonymous) (log10 ratio); higher = more cell-surface SGCB (functional)
measured.parameter: SGCB cell-surface expression functional score (log10)
Please state the value as a number alone, without comment.

The examples below pair each entry with its known result.
[[record]]
sequence_change = "N312C"
experimental_value = -0.41

[[record]]
sequence_change = "T175I"
experimental_value = -0.13

[[record]]
sequence_change = "N141Y"
experimental_value = -0.56

[[record]]
sequence_change = "S254I"
experimental_value = 0.12

[[record]]
sequence_change = "V200H"
experimental_value = -2.51

[[record]]
sequence_change = "E248P"
experimental_value = 0.43

[[record]]
sequence_change = "T151R"
experimental_value = -1.06

[[record]]
sequence_change = "L135Y"
experimental_value = -0.88


stdin: Answer with reported SGCB cell-surface expression functional score (log10) of `G244S`
stdout: 0.77

stdin: Answer with reported SGCB cell-surface expression functional score (log10) of `N217T`
stdout: 0.16

stdin: Answer with reported SGCB cell-surface expression functional score (log10) of `T266K`
stdout: 1.15

stdin: Answer with reported SGCB cell-surface expression functional score (log10) of `I166S`
stdout: -0.76

stdin: Answer with reported SGCB cell-surface expression functional score (log10) of `P121R`
stdout: -1

stdin: Answer with reported SGCB cell-surface expression functional score (log10) of `A2R`
stdout: 0.03

stdin: Answer with reported SGCB cell-surface expression functional score (log10) of `G315K`
stdout: -0.14

stdin: Answer with reported SGCB cell-surface expression functional score (log10) of `E133Q`
stdout: -0.09

stdin: Answer with reported SGCB cell-surface expression functional score (log10) of `Y44W`
stdout: 0.07
